Experiment: AUC in human at 15 to 120 mg, po QD after 24 hrs
Type: ADME, organism-based
Settings: in vivo
readout: AUC at 24 h (µM·h)
Write the value in µM·h as a bare number.

Bench note: what AUC at 24 h did `COc1ccc2c(c1)C(=O)N(CCc1ccc(S(=O)(=O)NC(=O)NC3CCCCC3)cc1)C(=O)C2(C)C` show?
9.67

----------
Assay: Drug concentration at steady state in human at 800 mg, po TID after 8 hrs
Format: ADME, organism-based
Conditions: in vivo, read-out: Css
readout: concentration at 8 h

Any idea what concentration at 8 h was measured for `CC(C)(C)NC(=O)[C@@H]1CN(Cc2cccnc2)CCN1C[C@@H](O)C[C@@H](Cc1ccccc1)C(=O)N[C@H]1c2ccccc2C[C@H]1O.O` ?
5.64 µM

Reference for the values: ChEMBL document CHEMBL4028801
